# STUDY SYSTEM: plasma purified human AT-III (antithrombin III)
# PROTOCOL TEXT: AT-III/UFH inhibition K0.5, ratio to Catalyst Biosciences WT FIXa
READOUT KIND: K0.5-mut/K0.5-wt

Previously resolved entries follow.
protein="FIXa-R318Y/R338E/E410N/T412V (protein) chain 1: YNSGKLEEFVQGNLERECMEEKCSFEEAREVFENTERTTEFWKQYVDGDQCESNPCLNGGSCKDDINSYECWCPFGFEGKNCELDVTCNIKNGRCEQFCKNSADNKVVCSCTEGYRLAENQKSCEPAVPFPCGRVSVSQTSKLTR chain 2: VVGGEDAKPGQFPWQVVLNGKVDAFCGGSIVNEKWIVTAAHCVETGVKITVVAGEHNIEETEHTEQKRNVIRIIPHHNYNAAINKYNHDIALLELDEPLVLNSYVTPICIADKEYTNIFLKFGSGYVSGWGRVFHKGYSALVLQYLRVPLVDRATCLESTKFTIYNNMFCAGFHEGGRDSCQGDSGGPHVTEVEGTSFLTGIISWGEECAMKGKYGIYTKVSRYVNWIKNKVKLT" readout_kind=K0.5-mut/K0.5-wt recorded_measurement=252
protein="FIXa-D104N/K106S/Y155F/K228N/K247N/N249S (protein) chain 1: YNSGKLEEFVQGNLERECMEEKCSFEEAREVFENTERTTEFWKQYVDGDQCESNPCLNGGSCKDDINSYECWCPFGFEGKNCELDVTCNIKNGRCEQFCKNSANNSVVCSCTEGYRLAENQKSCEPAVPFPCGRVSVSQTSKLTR chain 2: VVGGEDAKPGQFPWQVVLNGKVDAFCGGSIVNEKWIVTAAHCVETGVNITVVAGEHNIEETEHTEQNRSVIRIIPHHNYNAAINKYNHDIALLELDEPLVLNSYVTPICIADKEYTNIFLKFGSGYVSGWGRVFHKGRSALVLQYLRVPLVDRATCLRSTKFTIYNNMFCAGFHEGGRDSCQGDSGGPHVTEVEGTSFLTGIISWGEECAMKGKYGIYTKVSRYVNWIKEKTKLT" readout_kind=K0.5-mut/K0.5-wt recorded_measurement=1.6
protein="FIXa-Y155F/K228N/R318Y/R338E/R403E/E410N (protein) chain 1: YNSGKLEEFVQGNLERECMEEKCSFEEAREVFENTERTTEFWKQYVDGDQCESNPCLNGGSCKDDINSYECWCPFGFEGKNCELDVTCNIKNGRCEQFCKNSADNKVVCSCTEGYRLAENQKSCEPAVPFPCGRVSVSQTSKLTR chain 2: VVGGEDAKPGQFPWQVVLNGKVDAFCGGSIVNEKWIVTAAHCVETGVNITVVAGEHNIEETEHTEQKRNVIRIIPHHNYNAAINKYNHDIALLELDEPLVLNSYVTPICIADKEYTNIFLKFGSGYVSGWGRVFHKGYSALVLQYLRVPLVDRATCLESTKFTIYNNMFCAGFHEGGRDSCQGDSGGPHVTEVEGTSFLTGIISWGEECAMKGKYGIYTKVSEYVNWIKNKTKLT" readout_kind=K0.5-mut/K0.5-wt recorded_measurement="> 517"
protein="FIXa-K228N/K247N/N249S/R318Y/R338E/R403E/E410N (protein) chain 1: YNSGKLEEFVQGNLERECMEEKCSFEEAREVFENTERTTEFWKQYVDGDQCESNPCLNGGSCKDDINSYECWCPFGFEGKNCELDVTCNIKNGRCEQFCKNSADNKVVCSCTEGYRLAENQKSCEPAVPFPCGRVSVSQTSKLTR chain 2: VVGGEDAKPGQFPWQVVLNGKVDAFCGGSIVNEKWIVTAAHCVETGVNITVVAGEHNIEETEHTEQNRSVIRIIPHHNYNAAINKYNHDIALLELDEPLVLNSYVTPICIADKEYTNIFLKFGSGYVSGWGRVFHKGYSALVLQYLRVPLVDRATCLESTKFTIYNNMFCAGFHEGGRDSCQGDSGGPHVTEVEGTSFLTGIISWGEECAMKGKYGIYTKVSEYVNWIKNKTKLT" readout_kind=K0.5-mut/K0.5-wt recorded_measurement="> 517"
protein="FIXa-R318Y/R338E/R403E/E410N/T412A (protein) chain 1: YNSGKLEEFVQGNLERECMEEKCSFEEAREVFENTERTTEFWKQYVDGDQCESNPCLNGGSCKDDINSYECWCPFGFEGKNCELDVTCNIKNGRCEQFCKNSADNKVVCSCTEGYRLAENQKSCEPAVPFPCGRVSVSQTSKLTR chain 2: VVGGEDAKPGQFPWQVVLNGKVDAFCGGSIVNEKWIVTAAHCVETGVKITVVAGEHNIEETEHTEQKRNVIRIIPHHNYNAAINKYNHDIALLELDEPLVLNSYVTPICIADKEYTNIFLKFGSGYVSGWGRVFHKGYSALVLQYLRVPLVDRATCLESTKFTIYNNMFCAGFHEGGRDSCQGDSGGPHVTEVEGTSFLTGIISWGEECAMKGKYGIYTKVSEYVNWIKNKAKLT" readout_kind=K0.5-mut/K0.5-wt recorded_measurement="> 517"

Exercise: Provide only the value of recorded K0.5-mut/K0.5-wt for FIXa-R318Y/R338E/E410S (protein) chain 1: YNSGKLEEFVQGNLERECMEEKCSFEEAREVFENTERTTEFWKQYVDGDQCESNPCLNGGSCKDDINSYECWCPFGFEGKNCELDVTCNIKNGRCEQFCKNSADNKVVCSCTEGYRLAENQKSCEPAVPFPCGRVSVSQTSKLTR chain 2: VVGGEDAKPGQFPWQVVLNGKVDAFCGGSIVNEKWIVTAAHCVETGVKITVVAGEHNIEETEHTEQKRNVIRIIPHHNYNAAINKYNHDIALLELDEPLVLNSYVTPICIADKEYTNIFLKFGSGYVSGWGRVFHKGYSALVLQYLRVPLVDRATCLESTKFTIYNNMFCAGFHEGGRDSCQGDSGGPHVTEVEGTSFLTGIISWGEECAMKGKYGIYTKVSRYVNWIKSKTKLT
Solution: 279

Exercise: Provide only the value of recorded K0.5-mut/K0.5-wt for FIXa-D104N/K106S/K228N/K247N/N249S (protein) chain 1: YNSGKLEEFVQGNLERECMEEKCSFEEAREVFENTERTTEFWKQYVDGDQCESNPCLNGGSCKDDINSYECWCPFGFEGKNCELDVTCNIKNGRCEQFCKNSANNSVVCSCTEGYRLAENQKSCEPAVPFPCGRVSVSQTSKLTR chain 2: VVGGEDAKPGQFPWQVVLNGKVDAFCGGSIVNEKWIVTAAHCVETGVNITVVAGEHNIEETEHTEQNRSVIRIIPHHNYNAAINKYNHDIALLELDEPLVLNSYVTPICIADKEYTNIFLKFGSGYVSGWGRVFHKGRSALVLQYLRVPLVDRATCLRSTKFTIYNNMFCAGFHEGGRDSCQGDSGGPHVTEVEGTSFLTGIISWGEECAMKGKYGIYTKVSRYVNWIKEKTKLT
Solution: 2.1
